Consider the following compounds; for each one, report its cell viability.
System: HCT116
Assay: cell viability (CellTiter-Glo) relative to plate median (fraction of plate median); higher = more viable cells
Conditions: 5 µM; treatment time 24 h; reporter: TCF4/Wnt
Answer with a bare number; do not write a unit.

Request: cell viability, test system HCT116, entry CCOc1ccc2nc3cc(N)ccc3c(N)c2c1
Result: 1.02

Request: cell viability, test system HCT116, entry C1CCC(C(CC2CCCCN2)C2CCCCC2)CC1 (stereo not drawn)
Result: 0.983

Request: cell viability, test system HCT116, entry C=CCSCC(N)C(=O)O (stereo not drawn)
Result: 0.976

---

System: SW480
Test: cell viability (CellTiter-Glo) relative to plate median (fraction of plate median); higher = more viable cells
Conditions: 5 µM; treatment time 24 h; reporter: 7TFP
Threshold check on cell viability: strictly below 1 is YES; on or above 1 is NO.

Request: Check if cell viability falls below 1 for CC(C)NC[C@@H](O)COc1cccc2ccccc12 .
Result: NO

Request: Check if cell viability falls below 1 for Cc1cccc2c3c(ccc12)C1=C(C(=O)C3=O)[C@@H](C)CO1 .
Result: NO

Request: Check if cell viability falls below 1 for COc1cc([C@@H]2c3cc4c(cc3[C@@H](O[C@@H]3O[C@@H]5CO[C@@H](c6cccs6)O[C@H]5[C@H](O)[C@H]3O)[C@H]3COC(=O)[C@H]23)OCO4)cc(OC)c1O .
Result: YES

Request: Check if cell viability falls below 1 for CCn1cc(C(=O)O)c(=O)c2cnc(N3CCCC3)nc21 .
Result: YES

Request: Check if cell viability falls below 1 for COc1cc(NS(C)(=O)=O)ccc1Nc1c2ccccc2nc2ccccc12 .
Result: NO
